assayed.system: kalirin GEF domain (Homo sapiens, UniProt O60229)
method.notes: Fluorescence thermal shift (FTS) binding to kalirin GEF domain
observable: binding to kalirin by FTS (thermodynamic stability of kalirin GEF domain)

>>> result("Cc1cc2cc(Nc3ccnc(Nc4ccc5[nH]c(C)cc5c4)n3)ccc2[nH]1")
"not bind to kalirin"
>>> result("O=C1C=CC(=O)N1c1cccc([N+](=O)[O-])c1")
"not bind to kalirin"
>>> result("CCN(CC)CCCC(C)Nc1nc(C)cc(Nc2ccc3nc(C)cc(N)c3c2)n1 (stereo not shown)")
"not bind to kalirin"
